- target-or-system: CYP2C8 (Homo sapiens, UniProt P10632)
- Sequence (P10632 whole entry): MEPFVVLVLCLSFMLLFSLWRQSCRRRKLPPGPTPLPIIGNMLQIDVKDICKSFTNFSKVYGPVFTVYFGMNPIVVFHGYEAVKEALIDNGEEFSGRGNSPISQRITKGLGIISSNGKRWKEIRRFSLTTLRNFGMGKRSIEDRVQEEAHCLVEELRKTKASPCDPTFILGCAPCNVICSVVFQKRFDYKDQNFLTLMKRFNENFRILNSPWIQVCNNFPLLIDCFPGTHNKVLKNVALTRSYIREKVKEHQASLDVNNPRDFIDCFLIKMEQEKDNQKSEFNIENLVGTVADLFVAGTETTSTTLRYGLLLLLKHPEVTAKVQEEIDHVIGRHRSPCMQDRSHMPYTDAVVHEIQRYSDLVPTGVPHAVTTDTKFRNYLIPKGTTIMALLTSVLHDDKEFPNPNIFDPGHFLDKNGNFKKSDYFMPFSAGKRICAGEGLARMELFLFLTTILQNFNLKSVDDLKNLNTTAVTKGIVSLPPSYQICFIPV
- measurement-protocol: in vitro
- conditions: microsomes, pH 7.4
reported-endpoint: activity at 10 µM (%)
Report the figure in % without appending any unit label.

Prompt: # lookup: activity at 10 µM of O=C(O)c1cc(-c2ccc(/C=C3\SC(=S)N(CCc4ccccc4)C3=O)o2)ccc1Cl [NBCoV1]
Response: 3.87

###

- Test system: P-gp
- measurement-protocol: in vitro
- conditions: human, Caco-2, pH 7.4, Caco-2 permeability (mean Papp) A-to-B, 5 µM
reported-endpoint: Papp A→B (×10⁻⁶ cm/s)
Write the value in ×10⁻⁶ cm/s as a bare number.

Prompt: What value of Papp A→B has been reported for the following molecule? O=C(O)c1cc(-c2ccc(/C=C3\SC(=S)N(CCc4ccccc4)C3=O)o2)ccc1Cl
Response: 16.9

###

- target-or-system: CYP2D6 (Homo sapiens)
- measurement-protocol: in vitro
- conditions: microsomes, pH 7.4
reported-endpoint: activity at 10 µM (%)
// note: answer is a bare numeric in %

Prompt: Any idea what activity at 10 µM was measured for O=C(O)c1cc(-c2ccc(/C=C3\SC(=S)N(CCc4ccccc4)C3=O)o2)ccc1Cl ?
Response: 59.2

###

- measurement-protocol: in vivo
- conditions: female, Sprague Dawley, rat, iv, 5 mg/kg, t1/2
reported-endpoint: half-life
Answer format reminder: number followed by unit.

Prompt: I have this compound here, O=C(O)c1cccc(-c2ccc(/C=C3\SC(=S)N(CCc4ccccc4)C3=O)o2)c1 , and I need its recorded half-life.
Response: 3.52 h

Prompt: What value of measured half-life is listed for O=C(O)c1cc(-c2ccc(/C=C3\SC(=S)N(CCc4ccccc4)C3=O)o2)ccc1Cl ?
Response: 3.57 h

###

- target-or-system: UniProt P20813
- Sequence (P20813 whole entry): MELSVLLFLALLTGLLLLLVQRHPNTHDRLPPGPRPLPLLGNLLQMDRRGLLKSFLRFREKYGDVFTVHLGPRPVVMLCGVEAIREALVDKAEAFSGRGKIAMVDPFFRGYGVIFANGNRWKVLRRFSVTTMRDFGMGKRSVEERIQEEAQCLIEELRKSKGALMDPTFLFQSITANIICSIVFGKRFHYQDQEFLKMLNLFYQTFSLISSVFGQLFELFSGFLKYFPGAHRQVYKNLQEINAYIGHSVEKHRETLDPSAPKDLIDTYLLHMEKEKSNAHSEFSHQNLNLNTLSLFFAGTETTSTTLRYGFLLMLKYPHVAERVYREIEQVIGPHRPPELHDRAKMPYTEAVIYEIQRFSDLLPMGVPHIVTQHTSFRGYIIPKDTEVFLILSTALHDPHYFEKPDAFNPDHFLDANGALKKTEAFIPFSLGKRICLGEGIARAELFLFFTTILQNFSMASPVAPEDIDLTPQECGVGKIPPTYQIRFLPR
- measurement-protocol: in vitro
- conditions: microsomes, pH 7.4
reported-endpoint: activity at 0.0137 µM (%)
The figure you give is taken to be in %; do not add the unit.

Prompt: What does the record list as activity at 0.0137 µM for O=C(O)c1cc(-c2ccc(/C=C3\SC(=S)N(CCc4ccccc4)C3=O)o2)ccc1Cl ?
Response: 97.5

###

- System: pseudovirus SARS-CoV-2
- measurement-protocol: organism not typed
- Format: cell-based
- conditions: read-out: IC50
reported-endpoint: IC50
Provide a numeric answer, followed by its unit.

Prompt: I'd like to know its IC50. The compound in question is O=C(O)c1cc(-c2ccc(/C=C3\SC(=S)N(CCc4ccccc4)C3=O)o2)ccc1Cl
Response: 0.045 µM

###

- target-or-system: CYP2D6 (Homo sapiens, UniProt P10635)
- Sequence (P10635 whole entry): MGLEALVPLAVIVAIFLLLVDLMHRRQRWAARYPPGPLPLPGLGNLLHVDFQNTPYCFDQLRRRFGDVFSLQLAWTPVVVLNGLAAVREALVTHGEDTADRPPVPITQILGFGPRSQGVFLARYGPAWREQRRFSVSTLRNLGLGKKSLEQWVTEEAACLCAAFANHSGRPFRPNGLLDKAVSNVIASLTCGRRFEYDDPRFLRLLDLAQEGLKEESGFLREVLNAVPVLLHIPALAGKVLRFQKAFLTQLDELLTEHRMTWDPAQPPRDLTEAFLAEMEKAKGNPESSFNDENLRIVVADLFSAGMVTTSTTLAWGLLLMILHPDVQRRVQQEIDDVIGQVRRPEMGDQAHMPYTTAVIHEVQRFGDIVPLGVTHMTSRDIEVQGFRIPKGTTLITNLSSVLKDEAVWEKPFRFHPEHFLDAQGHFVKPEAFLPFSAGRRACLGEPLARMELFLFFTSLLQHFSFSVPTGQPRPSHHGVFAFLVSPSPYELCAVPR
- measurement-protocol: in vitro
- conditions: microsomes, pH 7.4
pIC50: −log10 of the molar value.
reported-endpoint: pIC50

Prompt: Looking for the measured pIC50 of O=C(O)c1cc(-c2ccc(/C=C3\SC(=S)N(CCc4ccccc4)C3=O)o2)ccc1Cl [NBCoV1] , can you help?
Response: < 5.00

###

- System: MERS-CoV pseudovirus
- measurement-protocol: microbe, parasite or virus in culture
- Assay type: cell-based
- conditions: Middle East respiratory syndrome-related coronavirus
reported-endpoint: IC50

Prompt: Fill in the blank: the reported IC50 of Cc1c(C(=O)O)cncc1-c1ccc(/C=C2\SC(=S)N(CCc3ccccc3)C2=O)o1 is ____.
Response: ~0.2 µM
